System: XIP peptide (Xip251-270) binding
Assay: small-molecule binders of XIP peptide, primary screen, biochemical, small-molecule microarray, fluorescence 635/667 nm, 0.1 µg/mL protein (AID 1182)
Settings: fluorescent protein binding, 635 nm, higher = more signal, called active from +8 up or from −8 down
property.name: composite z-score
# print the numeric value only

Quickly give me recorded composite z-score for "Cc1ccc(S[C@]2(C(=O)NCCN3CCOCC3)CC(=O)N(C(C)C)[C@@H]2c2ccc(CO)cc2I)cc1"
0.342

Quickly give me recorded composite z-score for "CO[C@H]1O[C@H](CO)[C@@H](OC(=O)Nc2ccccc2)[C@@H]2OC(=O)[C@@H](Cc3ccccc3)C/C=C/C[C@H](Cc3ccccc3)C(=O)O[C@@H]12"
0.0585

Quickly give me recorded composite z-score for "O=C1O[C@H](c2ccccc2)[C@H](c2ccccc2)N2[C@H]1[C@@H](C(=O)Nc1nc3ccccc3s1)[C@]1(C(=O)Nc3ccccc31)[C@H]2c1ccccc1OCCO"
1.18
